System: C. gloeosporioides (KCTC 6169)
condition-notes: KCTC 6169, 48 h, pH 6
Residues, ends and D or L forms follow the SMILES beside them.
Label key: 1 means MIC under 20 µM; 0 means MIC of 20 µM or more.

NCCCC[C@H](NC(=O)[C@H](CCCCN)NC(=O)[C@H](Cc1c[nH]cn1)NC(=O)[C@H](CCCCN)NC(=O)[C@H](CCCCN)NC(=O)[C@H](Cc1c[nH]cn1)NC(=O)[C@H](CCCCN)NC(=O)[C@H](CCCCN)NC(=O)[C@H](Cc1c[nH]cn1)NC(=O)[C@H](CCCCN)NC(=O)[C@H](CCCCN)NC(=O)[C@H](Cc1c[nH]cn1)NC(=O)[C@H](CCCCN)NC(=O)[C@H](CCCCN)NC(=O)[C@H](Cc1c[nH]cn1)NC(=O)[C@H](CCCCN)NC(=O)[C@H](CCCCN)NC(=O)[C@@H](N)Cc1c[nH]cn1)C(N)=O [(HKK)6] (H-HKKHKKHKKHKKHKKHKK-NH2)	1
NCCCC[C@H](NC(=O)[C@H](CCCCN)NC(=O)[C@H](Cc1c[nH]cn1)NC(=O)[C@H](CCCCN)NC(=O)[C@H](CCCCN)NC(=O)[C@@H](N)Cc1c[nH]cn1)C(N)=O [(HKK)2] (H-HKKHKK-NH2)	1
NCCCC[C@H](NC(=O)[C@H](CCCCN)NC(=O)[C@H](Cc1c[nH]cn1)NC(=O)[C@H](CCCCN)NC(=O)[C@H](CCCCN)NC(=O)[C@H](Cc1c[nH]cn1)NC(=O)[C@H](CCCCN)NC(=O)[C@H](CCCCN)NC(=O)[C@@H](N)Cc1c[nH]cn1)C(N)=O [(HKK)3] (H-HKKHKKHKK-NH2)	1
NCCCC[C@H](NC(=O)[C@H](CCCCN)NC(=O)[C@@H](N)Cc1c[nH]cn1)C(N)=O [(HKK)1] (H-His-Lys-Lys-NH2)	0

API: the following record is the query input.
Inquiry: Threshold test, MIC < 20 µM: NCCCC[C@H](NC(=O)[C@H](CCCCN)NC(=O)[C@H](Cc1c[nH]cn1)NC(=O)[C@H](CCCCN)NC(=O)[C@H](CCCCN)NC(=O)[C@H](Cc1c[nH]cn1)NC(=O)[C@H](CCCCN)NC(=O)[C@H](CCCCN)NC(=O)[C@H](Cc1c[nH]cn1)NC(=O)[C@H](CCCCN)NC(=O)[C@H](CCCCN)NC(=O)[C@@H](N)Cc1c[nH]cn1)C(N)=O [(HKK)4] (H-HKKHKKHKKHKK-NH2)
Reply text: 1

###

System: C. parapsilosis (CCARM 14016)
condition-notes: CCARM 14016, 48 h, pH 6
Residues, ends and D or L forms follow the SMILES beside them.
Each entry below lists one item and its recorded MIC value.
Form entry: value (µM) — number only.

Some molecules with known MIC results, for comparison:
NCCCC[C@H](NC(=O)[C@H](CCCCN)NC(=O)[C@H](Cc1c[nH]cn1)NC(=O)[C@H](CCCCN)NC(=O)[C@H](CCCCN)NC(=O)[C@H](Cc1c[nH]cn1)NC(=O)[C@H](CCCCN)NC(=O)[C@H](CCCCN)NC(=O)[C@H](Cc1c[nH]cn1)NC(=O)[C@H](CCCCN)NC(=O)[C@H](CCCCN)NC(=O)[C@H](Cc1c[nH]cn1)NC(=O)[C@H](CCCCN)NC(=O)[C@H](CCCCN)NC(=O)[C@H](Cc1c[nH]cn1)NC(=O)[C@H](CCCCN)NC(=O)[C@H](CCCCN)NC(=O)[C@@H](N)Cc1c[nH]cn1)C(N)=O [(HKK)6] (H-HKKHKKHKKHKKHKKHKK-NH2)	16
NCCCC[C@H](NC(=O)[C@H](CCCCN)NC(=O)[C@H](Cc1c[nH]cn1)NC(=O)[C@H](CCCCN)NC(=O)[C@H](CCCCN)NC(=O)[C@H](Cc1c[nH]cn1)NC(=O)[C@H](CCCCN)NC(=O)[C@H](CCCCN)NC(=O)[C@H](Cc1c[nH]cn1)NC(=O)[C@H](CCCCN)NC(=O)[C@H](CCCCN)NC(=O)[C@@H](N)Cc1c[nH]cn1)C(N)=O [(HKK)4] (H-HKKHKKHKKHKK-NH2)	32
NCCCC[C@H](NC(=O)[C@H](CCCCN)NC(=O)[C@H](Cc1c[nH]cn1)NC(=O)[C@H](CCCCN)NC(=O)[C@H](CCCCN)NC(=O)[C@@H](N)Cc1c[nH]cn1)C(N)=O [(HKK)2] (H-HKKHKK-NH2)	64
NCCCC[C@H](NC(=O)[C@H](CCCCN)NC(=O)[C@H](Cc1c[nH]cn1)NC(=O)[C@H](CCCCN)NC(=O)[C@H](CCCCN)NC(=O)[C@H](Cc1c[nH]cn1)NC(=O)[C@H](CCCCN)NC(=O)[C@H](CCCCN)NC(=O)[C@@H](N)Cc1c[nH]cn1)C(N)=O [(HKK)3] (H-HKKHKKHKK-NH2)	32

Inquiry: Form field: MIC recorded for NCCCC[C@H](NC(=O)[C@H](CCCCN)NC(=O)[C@@H](N)Cc1c[nH]cn1)C(N)=O [(HKK)1] (H-His-Lys-Lys-NH2) with C. parapsilosis (CCARM 14016) (enter value)
Reply text: 1024
